meta.source: paper PMC6416464

tested-target: rCYP2D6 (Homo sapiens, UniProt P10635)
Sequence (P10635 whole entry): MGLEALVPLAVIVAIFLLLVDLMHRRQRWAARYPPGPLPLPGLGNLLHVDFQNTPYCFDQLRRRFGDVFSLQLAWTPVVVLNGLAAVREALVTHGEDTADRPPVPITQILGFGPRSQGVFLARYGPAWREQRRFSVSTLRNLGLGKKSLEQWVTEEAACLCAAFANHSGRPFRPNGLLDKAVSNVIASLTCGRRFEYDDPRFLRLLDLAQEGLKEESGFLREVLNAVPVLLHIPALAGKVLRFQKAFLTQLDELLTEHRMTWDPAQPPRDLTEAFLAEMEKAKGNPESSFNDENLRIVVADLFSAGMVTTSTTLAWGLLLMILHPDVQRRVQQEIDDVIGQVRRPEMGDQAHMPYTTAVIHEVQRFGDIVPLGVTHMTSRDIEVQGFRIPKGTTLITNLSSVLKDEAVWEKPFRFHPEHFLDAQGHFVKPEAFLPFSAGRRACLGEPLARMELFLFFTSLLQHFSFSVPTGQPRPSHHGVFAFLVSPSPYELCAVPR
assay-explanation: Metabolic stability / reaction phenotyping with recombinant human CYP2D6
condition-notes: human, recombinant human CYP2D6, 1 µM, pH 7.4
// reported rCYP Clint, CYP2D6 for each item listed
Write the numeric value and append its unit.

compound	rCYP Clint, CYP2D6
CNC(=O)Oc1cc(C)c(SC)c(C)c1	1.724 µL/min/pmol
CC(C)(O)c1ccccc1CC[C@@H](SCC1(CC(=O)O)CC1)c1cccc(/C=C/c2ccc3ccc(Cl)cc3n2)c1 [Montelukast, montelukast, reference compound]	0.026 µL/min/pmol
CCCSc1ccc2nc(NC(=O)OC)[nH]c2c1 [Albendazole, albendazole, reference compound]	0.349 µL/min/pmol
O=C1Cc2cc(CCN3CCN(c4nsc5ccccc45)CC3)c(Cl)cc2N1 [Ziprasidone, ziprasidone, reference compound]	0.013 µL/min/pmol

Note: attention shifts to another entry.
Report rCYP Clint, CYP2D6 for CSc1nc2cc(Cl)c(Oc3cccc(Cl)c3Cl)cc2[nH]1 [Triclabendazole, reference compound] please.
0.445 µL/min/pmol

* * *

tested-target: UniProt:P10632
Sequence (P10632 1-490): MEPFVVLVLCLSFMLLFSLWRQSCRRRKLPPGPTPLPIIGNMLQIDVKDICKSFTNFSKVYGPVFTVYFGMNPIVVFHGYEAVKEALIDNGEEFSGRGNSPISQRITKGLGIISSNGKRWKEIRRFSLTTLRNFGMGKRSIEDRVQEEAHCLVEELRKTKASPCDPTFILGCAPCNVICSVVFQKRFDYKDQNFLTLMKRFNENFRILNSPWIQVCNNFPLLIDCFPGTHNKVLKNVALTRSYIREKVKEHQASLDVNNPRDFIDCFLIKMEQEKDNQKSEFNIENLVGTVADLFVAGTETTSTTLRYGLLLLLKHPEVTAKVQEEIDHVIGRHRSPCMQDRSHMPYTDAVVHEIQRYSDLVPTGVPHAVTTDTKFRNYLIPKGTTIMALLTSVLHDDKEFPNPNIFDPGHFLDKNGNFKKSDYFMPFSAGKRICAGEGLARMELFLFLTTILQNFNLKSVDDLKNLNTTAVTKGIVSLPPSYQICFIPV
assay-explanation: CYP inhibition in human liver microsomes, CYP2C8
condition-notes: human, human liver microsomes, pH 7.4, probe paclitaxel
readout-label: inhibition at 2 µM (%)
Provide only the numeric value, understood in %.

>>> print(df.to_string())
                                   compound  unit_of_measurement  quantitative_readout
0  CSc1nc2cc(Cl)c(Oc3cccc(Cl)c3Cl)cc2[nH]1 [Triclabendazole, reference compound]                    %                  7.09

Now look at this entry.
Value wanted: inhibition at 2 µM (UniProt:P10632) of entry CNC(=O)O/N=C/C(C)(C)SC
2.63

* * *

tested-target: rCYP3A4 (Homo sapiens)
Sequence (P08684 whole entry): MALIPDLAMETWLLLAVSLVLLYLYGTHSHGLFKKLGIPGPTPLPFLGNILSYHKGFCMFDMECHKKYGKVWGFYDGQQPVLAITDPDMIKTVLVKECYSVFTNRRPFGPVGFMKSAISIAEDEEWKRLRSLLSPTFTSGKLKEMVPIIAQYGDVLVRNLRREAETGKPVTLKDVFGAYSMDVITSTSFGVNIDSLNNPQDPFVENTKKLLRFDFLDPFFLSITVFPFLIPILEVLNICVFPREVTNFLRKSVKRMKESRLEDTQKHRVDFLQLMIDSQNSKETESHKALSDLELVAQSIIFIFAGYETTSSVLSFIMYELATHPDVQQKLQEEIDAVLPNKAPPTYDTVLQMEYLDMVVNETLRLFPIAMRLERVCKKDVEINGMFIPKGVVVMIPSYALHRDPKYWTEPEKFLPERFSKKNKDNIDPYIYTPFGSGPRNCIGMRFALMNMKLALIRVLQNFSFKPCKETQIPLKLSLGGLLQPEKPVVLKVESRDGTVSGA
condition-notes: human, recombinant enzyme, pH 7.4
Collected rCYP Clint, CYP3A4 values appear next to each entry.
Give just the numeric value; µL/min/pmol need not be written.

// worked examples, rCYP Clint, CYP3A4 included
molecule	tested-target	rCYP Clint, CYP3A4 [µL/min/pmol]
CC(C)(O)c1ccccc1CC[C@@H](SCC1(CC(=O)O)CC1)c1cccc(/C=C/c2ccc3ccc(Cl)cc3n2)c1 [Montelukast, montelukast, reference compound]	rCYP3A4 (Homo sapiens)	0.172
CNC(=O)O/N=C/C(C)(C)[S+](C)[O-] (centres unmarked) [Aldicarb sulfoxide, aldicarb sulfoxide]	rCYP3A4 (Homo sapiens)	0.020

Data request, read-out rCYP Clint, CYP3A4, for CSc1nc2cc(Cl)c(Oc3cccc(Cl)c3Cl)cc2[nH]1 [Triclabendazole, reference compound]
0.041

Further, for O=C1Cc2cc(CCN3CCN(c4nsc5ccccc45)CC3)c(Cl)cc2N1 [Ziprasidone, ziprasidone, reference compound] ?
0.482

Would you kindly repeat that for CNC(=O)Oc1cc(C)c(SC)c(C)c1 ?
1.694
